Target: furin, P09958;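 also: purified furin at 1:10 enzyme:substrate in 50 mM HEPES pH 7.5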
Sequence (P09958 whole entry): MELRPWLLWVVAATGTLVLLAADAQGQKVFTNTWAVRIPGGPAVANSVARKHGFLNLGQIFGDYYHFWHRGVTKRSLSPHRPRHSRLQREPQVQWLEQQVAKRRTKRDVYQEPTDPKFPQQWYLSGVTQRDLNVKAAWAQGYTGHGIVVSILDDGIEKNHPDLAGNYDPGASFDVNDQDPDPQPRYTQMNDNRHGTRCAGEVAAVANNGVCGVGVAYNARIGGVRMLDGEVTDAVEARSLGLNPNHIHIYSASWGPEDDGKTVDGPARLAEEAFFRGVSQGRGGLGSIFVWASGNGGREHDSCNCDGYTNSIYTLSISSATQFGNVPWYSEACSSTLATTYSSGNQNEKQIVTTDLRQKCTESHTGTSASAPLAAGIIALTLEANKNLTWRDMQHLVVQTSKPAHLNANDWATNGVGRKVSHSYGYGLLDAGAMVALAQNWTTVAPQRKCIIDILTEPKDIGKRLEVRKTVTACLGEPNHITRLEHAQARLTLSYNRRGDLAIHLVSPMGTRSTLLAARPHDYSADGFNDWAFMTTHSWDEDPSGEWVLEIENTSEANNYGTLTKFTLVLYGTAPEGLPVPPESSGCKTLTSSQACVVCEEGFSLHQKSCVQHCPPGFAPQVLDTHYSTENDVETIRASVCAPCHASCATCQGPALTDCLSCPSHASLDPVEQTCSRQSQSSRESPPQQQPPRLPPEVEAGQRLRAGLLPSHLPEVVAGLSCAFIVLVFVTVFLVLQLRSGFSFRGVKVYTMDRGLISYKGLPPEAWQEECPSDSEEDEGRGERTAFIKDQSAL
Test: furin cleavage Z-score vs untreated control; higher = more cleavage, active = 3.5 or more, inactive = 1 or less, 8 variable residues between constant flanks
Conditions: 7.5 min
The list shows a part of the results. The hit rate among all sequences tested is not known here.
Outcome codes: active, inactive

INSERT INTO assay_data (seq, assigned_category) VALUES
  ('CAGRPRSRKIAGNASASA [FS-657]', 'inactive'),
  ('CATLSRSSRSAGNASASA [FS-1292]', 'active'),
  ('CALLLAVFGPAGNASASA [HC606]', 'inactive'),
  ('CAWTVYHGAGAGNASASA [HC700]', 'inactive'),
  ('CALAFRRRRDAGNASASA [FS-346]', 'active'),
  ('CAGINAVAYYAGNASASA [HC866]', 'inactive'),
  ('CARANRIVNAAGNASASA [FS-2392]', 'inactive'),
  ('CASGSRSSRSAGNASASA [FS-1409]', 'inactive'),
  ('CATTDRRRRDAGNASASA [FS-101]', 'active'),
  ('CAETWKKPDYAGNASASA [HC1310]', 'inactive'),
  ('CAEVPCHRTSAGNASASA [HC2398]', 'inactive'),
  ('CAGRPRRRRDAGNASASA [FS-432]', 'active'),
  ('CANKSRESRPAGNASASA [FS-1469]', 'inactive'),
  ('CAVIIKLGALAGNASASA [HC629]', 'inactive');

Sourced from the supplement of paper PMC3545927
